Read-out: matrix metalloproteinase-3 (MMP3), MMP3 (gene 4314)
protocol description: LTEA_HepaRG_MMP3: Life Technologies and Expression Analysis (LTEA) Assay for matrix metalloproteinase-3 (MMP3) using HepaRG (AID 2283519)
measurement conditions: mRNA level, 48 h; actives raise or lower the signal
Active and inactive are the calls of the source. The calls were made as follows: active = hit-call score of the fitted dose curve at least 0.9, where 1 is the maximum; inactive = score below 0.9.
metric name: AC50

Worked cases, answers included:
Q: Please look at this compound and report its AC50: COP(=S)(OC)SCn1nnc2ccccc2c1=O
Result: inactive

Q: Please look at this compound and report its AC50: CC(C)C1(C)N=C(c2ncccc2C(=O)O)NC1=O (stereo unspecified)
Result: inactive

Q: Please look at this compound and report its AC50: CCNP(=S)(OC)O/C(C)=C/C(=O)OC(C)C (stereo unspecified)
Result: 50 µM (active)

Q: Please look at this compound and report its AC50: CCCCC(C#N)(Cn1cncn1)c1ccc(Cl)cc1 (stereo unspecified)
Result: 73.1 µM (active)

Q: Please look at this compound and report its AC50: CO/N=C(/C1=NOCCO1)c1ccccc1Oc1ncnc(Oc2ccccc2Cl)c1F
Result: 50 µM (active)

Next:
Q: Please look at this compound and report its AC50: CCOP(=S)(OCC)Oc1nc(Cl)n(C(C)C)n1
Result: inactive

----------
protocol description: CEETOX_H295R_OHPROG: CeeTox H295R High-throughput Steroidogenesis Assay for OH-Progesterone (OHPROG) (AID 2283435)
measurement conditions: actives raise or lower the signal
Active and inactive are the calls of the source. The calls were made as follows: active = hit-call score of the fitted dose curve at least 0.9, where 1 is the maximum; inactive = score below 0.9.
// classify into active, inactive

Some entries whose results are on file:
Q: Given CNC(=O)Oc1cccc2ccccc12 , state the outcome it received in this test.
Result: inactive

Q: Given CN/C(=N\[N+](=O)[O-])NCc1cnc(Cl)s1 , state the outcome it received in this test.
Result: inactive

Q: Given CCOc1nc(C(Cl)(Cl)Cl)ns1 , state the outcome it received in this test.
Result: inactive

Q: Given CC(C)(C)C(=O)C(Oc1ccc(Cl)cc1)n1cncn1 (stereo not given) , state the outcome it received in this test.
Result: active

***
Q: Given CC1(C)CCC(=Cc2ccc(Cl)cc2)C1(O)Cn1cncn1 (stereo not given) , state the outcome it received in this test.
Result: inactive

Q: Given CCNP(=S)(OC)O/C(C)=C/C(=O)OC(C)C (stereo not given) , state the outcome it received in this test.
Result: inactive

Q: Given COP(=S)(OC)SCn1nnc2ccccc2c1=O , state the outcome it received in this test.
Result: active

Q: Given N#Cc1c(Cl)cccc1Cl , state the outcome it received in this test.
Result: inactive

Q: Given CC(C)NC(=O)N1CC(=O)N(c2cc(Cl)cc(Cl)c2)C1=O , state the outcome it received in this test.
Result: active

Q: Given COc1cc(Cl)c(OC)cc1Cl , state the outcome it received in this test.
Result: inactive

Q: Given O=C(Nc1ccccc1-c1ccc(Cl)cc1)c1cccnc1Cl , state the outcome it received in this test.
Result: inactive

----------
Read-out: Cytochrome P450 2B6 (Homo sapiens) (UniProt P20813)
protocol description: CLD_CYP2B6_6hr: CellzDirect (CLD) Gene Expression Assay for xenobiotic metabolism (CYP2B6) at 6 hours (AID 2283677);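 also: actives raise CYP2B6 transcript above DMSO baseline so AC50 marks an inducer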
Inconclusive results are not listed. Activity calls are given as the source filed them. How the source made its calls: active means hit-call score of the fitted dose curve at least 0.9, where 1 is the maximum; inconclusive means response in the unintended direction; inactive means score below 0.9.
// classify into y = active, n = inactive

Some entries whose results are on file:
Q: Given CC(C)(C)C(=O)C(Oc1ccc(Cl)cc1)n1cncn1 (centres undefined) , state the outcome it received in this test.
Result: y

Q: Given CC(C)Oc1cccc(NC(=O)c2ccccc2C(F)(F)F)c1 , state the outcome it received in this test.
Result: y

Q: Given N#Cc1c[nH]cc1-c1cccc2c1OC(F)(F)O2 , state the outcome it received in this test.
Result: y

Q: Given CCSC(=O)N1CCCCCC1 , state the outcome it received in this test.
Result: y

Q: Given CN=C=S , state the outcome it received in this test.
Result: y

***
Q: Given CS(=O)(=O)c1cc(C(F)(F)F)ccc1C(=O)c1cnoc1C1CC1 , state the outcome it received in this test.
Result: n

Q: Given CC(C)NC(=O)N1CC(=O)N(c2cc(Cl)cc(Cl)c2)C1=O , state the outcome it received in this test.
Result: y

Q: Given COC(=O)NS(=O)(=O)c1ccc(N)cc1 , state the outcome it received in this test.
Result: n

----------
protocol description: IUF_NPC1a_proliferation_area_72hr: Leibniz Research Institute for Environmental Medicine (IUF) 72-hour Neural Progenitor Cell Proliferation Area Assay (NPC1a) (AID 2284208)
Calls of active or inactive are those of the source. Rule for the calls: active = hit-call score of the fitted dose curve at least 0.9, where 1 is the maximum; inactive = score below 0.9.
metric name: outcome

Worked cases, answers included:
Q: Please look at this compound and report its outcome: CC1(C)C(C=C(Cl)Cl)C1C(=O)OC(C#N)c1cccc(Oc2ccccc2)c1 (stereo unspecified)
Result: inactive

Q: Please look at this compound and report its outcome: C=C(C)CN(CC)c1c([N+](=O)[O-])cc(C(F)(F)F)cc1[N+](=O)[O-]
Result: inactive

Q: Please look at this compound and report its outcome: CS(=O)(=O)c1ccc(C(=O)C2C(=O)CCCC2=O)c([N+](=O)[O-])c1
Result: inactive

Q: Please look at this compound and report its outcome: Cc1c(COC(=O)[C@@H]2[C@H](/C=C(\Cl)C(F)(F)F)C2(C)C)cccc1-c1ccccc1
Result: inactive

Q: Please look at this compound and report its outcome: CS(=O)(=O)c1cc(C(F)(F)F)ccc1C(=O)c1cnoc1C1CC1
Result: inactive

Next:
Q: Please look at this compound and report its outcome: CC(C)(C)C(=O)C(Oc1ccc(Cl)cc1)n1cncn1 (stereo unspecified)
Result: inactive

----------
tested target: Signal transducer and activator of transcription 3 (Homo sapiens) (UniProt P40763)
Sequence (P40763 whole entry, looked up): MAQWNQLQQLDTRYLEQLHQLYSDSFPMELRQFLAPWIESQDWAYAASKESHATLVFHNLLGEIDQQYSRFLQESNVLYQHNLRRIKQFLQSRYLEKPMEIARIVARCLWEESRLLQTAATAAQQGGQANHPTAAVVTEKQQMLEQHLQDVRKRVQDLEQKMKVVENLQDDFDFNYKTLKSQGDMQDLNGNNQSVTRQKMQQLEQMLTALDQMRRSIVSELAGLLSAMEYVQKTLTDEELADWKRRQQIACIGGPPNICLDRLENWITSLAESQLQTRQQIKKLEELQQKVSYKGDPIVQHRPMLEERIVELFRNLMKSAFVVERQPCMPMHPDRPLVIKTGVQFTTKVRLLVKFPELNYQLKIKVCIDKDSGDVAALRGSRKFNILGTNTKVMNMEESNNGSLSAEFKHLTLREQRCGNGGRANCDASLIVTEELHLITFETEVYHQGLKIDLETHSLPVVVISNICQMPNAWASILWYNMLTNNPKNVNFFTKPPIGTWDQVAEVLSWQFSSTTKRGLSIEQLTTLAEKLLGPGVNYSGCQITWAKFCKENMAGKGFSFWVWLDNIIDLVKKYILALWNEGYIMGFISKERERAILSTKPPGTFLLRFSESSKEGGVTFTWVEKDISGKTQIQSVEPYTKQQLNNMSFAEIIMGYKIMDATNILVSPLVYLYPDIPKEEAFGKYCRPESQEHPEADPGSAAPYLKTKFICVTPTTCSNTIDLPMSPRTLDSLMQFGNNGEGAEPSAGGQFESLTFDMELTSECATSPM
protocol description: ATG_STAT3_CIS: Attagene CIS-FACTORIAL HepG2 Assay for human Signal Transducer and Activator of Transcription 3 (STAT3) (AID 2282963)
measurement conditions: HepG2, Attagene cis-factorial STAT3 reporter transcription; actives raise or lower the signal
Calls of active or inactive are those of the source. Rule for the calls: active = hit-call score of the fitted dose curve at least 0.9, where 1 is the maximum; inactive = score below 0.9.
// classify into True for active, False for inactive

Some entries whose results are on file:
Q: Given COC(=O)N(C(=O)N1CO[C@@]2(C(=O)OC)Cc3cc(Cl)ccc3C2=N1)c1ccc(OC(F)(F)F)cc1 , state the outcome it received in this test.
Result: False

Q: Given CCNC(=O)NC(=O)C(C#N)=NOC , state the outcome it received in this test.
Result: False

***
Q: Given COCc1cnc(C2=NC(C)(C(C)C)C(=O)N2)c(C(=O)O)c1 (stereo not drawn) , state the outcome it received in this test.
Result: False

Q: Given CC1(C)C(C(=O)OC(C#N)c2cccc(Oc3ccccc3)c2)C1(C)C (stereo not drawn) , state the outcome it received in this test.
Result: False

Q: Given N#Cc1c[nH]cc1-c1cccc2c1OC(F)(F)O2 , state the outcome it received in this test.
Result: False

Q: Given CCOP(=O)(OCC)Oc1nc(Cl)c(Cl)cc1Cl , state the outcome it received in this test.
Result: False

Q: Given CCCN(CC)CC1COC2(CCC(C(C)(C)C)CC2)O1 (stereo not drawn) , state the outcome it received in this test.
Result: True

Q: Given CC1(C)CON(Cc2ccccc2Cl)C1=O , state the outcome it received in this test.
Result: False

Q: Given O=P(O)(O)CCCl , state the outcome it received in this test.
Result: False

Q: Given CN=C=S , state the outcome it received in this test.
Result: False

Q: Given COc1ccc(-c2ccccc2)cc1NNC(=O)OC(C)C , state the outcome it received in this test.
Result: False

----------
Tested on: Sodium/Iodide Symporter (NIS), SLC5A5 (gene 6528)
protocol description: CPHEA_Stoker_NIS_Inhibition_RAIU: CPHEA's Radioactive Iodide Uptake (RAIU) Assay for Sodium/Iodide Symporter (NIS) Inhibition, Stoker and Laws Labs (AID 2283841)
Results filed as inconclusive are left out. Activity calls are given as the source filed them. The calls were made as follows: active = hit-call score of the fitted dose curve at least 0.9, where 1 is the maximum; inconclusive = response in the unintended direction; inactive = score below 0.9.
// classify into active, inactive

Some entries whose results are on file:
Q: Given CCOc1cc(C(C)(C)C)ccc1C1COC(c2c(F)cccc2F)=N1 (configuration not stated) , state the outcome it received in this test.
Result: active

Q: Given C=CCOC(=O)C(C)(C)OC(=O)c1cc(-n2c(=O)cc(C(F)(F)F)n(C)c2=O)ccc1Cl , state the outcome it received in this test.
Result: inactive

Q: Given CCN(CC)c1nc(C)cc(OP(=S)(OC)OC)n1 , state the outcome it received in this test.
Result: inactive

Q: Given CCOP(=S)(OCC)Oc1nc(Cl)n(C(C)C)n1 , state the outcome it received in this test.
Result: inactive

Q: Given CC1(C)C(C(=O)OC(C#N)c2cccc(Oc3ccccc3)c2)C1(C)C (configuration not stated) , state the outcome it received in this test.
Result: inactive

***
Q: Given COc1ccc(-c2ccccc2)cc1NNC(=O)OC(C)C , state the outcome it received in this test.
Result: active

Q: Given C=C(C)CN(CC)c1c([N+](=O)[O-])cc(C(F)(F)F)cc1[N+](=O)[O-] , state the outcome it received in this test.
Result: active
